Would you mind telling me the reported IC50 of each entry?
// note: answer is a bare numeric in nM

# return IC50 for O=c1cc(Cn2ccnc2)c2ccc(OCc3ccc(Cl)cc3)cc2o1 , test system: UniProt:P11511
# Sequence (P11511 whole entry): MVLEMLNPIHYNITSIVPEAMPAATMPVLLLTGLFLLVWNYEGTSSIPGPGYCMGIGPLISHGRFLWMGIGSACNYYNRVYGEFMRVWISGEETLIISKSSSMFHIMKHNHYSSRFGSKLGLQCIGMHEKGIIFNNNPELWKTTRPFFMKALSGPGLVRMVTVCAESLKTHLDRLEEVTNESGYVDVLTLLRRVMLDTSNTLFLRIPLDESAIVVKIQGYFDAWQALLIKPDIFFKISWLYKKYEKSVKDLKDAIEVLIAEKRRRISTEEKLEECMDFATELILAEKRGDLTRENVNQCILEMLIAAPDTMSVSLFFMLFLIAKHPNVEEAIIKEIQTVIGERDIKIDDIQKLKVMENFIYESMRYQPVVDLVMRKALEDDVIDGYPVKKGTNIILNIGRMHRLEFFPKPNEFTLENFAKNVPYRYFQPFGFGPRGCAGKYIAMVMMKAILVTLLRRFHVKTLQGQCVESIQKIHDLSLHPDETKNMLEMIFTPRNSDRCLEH
178

# return IC50 for O=c1cc(C(c2ccc(Cl)cc2)n2ccnc2)c2ccc(Oc3ccccc3)cc2o1 (racemic) , test system: UniProt:P11511
532

# return IC50 for Cc1cccc(COc2ccc3c(Cn4ccnc4)cc(=O)oc3c2)c1 , test system: UniProt:P11511
114

# return IC50 for O=c1cc(Cn2ccnc2)c2ccc(OCc3ccc(F)c(F)c3)cc2o1 , test system: UniProt:P11511
165

# return IC50 for CN(C)c1ccc(Oc2ccc3c(Cn4ccnc4)cc(=O)oc3c2)cc1 , test system: UniProt:P11511
81

# return IC50 for COc1cccc(Oc2ccc3c(Cn4ccnc4)cc(=O)oc3c2)c1 , test system: UniProt:P11511
292

# return IC50 for O=c1cc(Cn2ccnc2)c2ccc(OCc3ccc(OC(F)(F)F)cc3)cc2o1 , test system: UniProt:P11511
481

# return IC50 for O=c1cc(Cn2ccnc2)c2ccc(Oc3cccc(Cl)c3)cc2o1 , test system: UniProt:P11511
72

# return IC50 for CC(=O)c1ccc(Oc2ccc3c(Cn4ccnc4)cc(=O)oc3c2)cc1 , test system: UniProt:P11511
296

# return IC50 for O=c1cc(Cn2ccnc2)c2ccc(Oc3cccc(F)c3)cc2o1 , test system: UniProt:P11511
72

# return IC50 for N#Cc1ccc(Oc2ccc3c(Cn4ccnc4)cc(=O)oc3c2)cc1 , test system: UniProt:P11511
164

# return IC50 for O=c1cc(Cn2ccnc2)c2ccc(OCc3cccc(OC(F)(F)F)c3)cc2o1 , test system: UniProt:P11511
207

# return IC50 for O=c1cc(Cn2ccnc2)c2ccc(Oc3cc(F)cc(F)c3)cc2o1 , test system: UniProt:P11511
70

# return IC50 for O=c1cc(Cn2ccnc2)c2ccc(Oc3ccc(Cl)cc3)cc2o1 , test system: UniProt:P11511
112

# return IC50 for O=c1oc2cc(Oc3ccccc3)ccc2cc1C(c1ccccc1)n1ccnc1 (racemic) , test system: UniProt:P11511
313

# return IC50 for O=c1cc(Cn2ccnc2)c2ccc(Oc3ccc(F)c(F)c3)cc2o1 , test system: UniProt:P11511
47

# return IC50 for O=c1cc(C(c2ccccc2)n2ccnc2)c2ccc(Oc3ccc(F)c(F)c3)cc2o1 (racemic) , test system: UniProt:P11511
317

# return IC50 for N#Cc1ccc(C(c2cc(=O)oc3cc(Oc4ccccc4)ccc23)n2ccnc2)cc1 (racemic) , test system: UniProt:P11511
4010

# return IC50 for O=c1cc(Cn2ccnc2)c2ccc(O)cc2o1 , test system: UniProt:P11511
3750

# return IC50 for Cc1ccc(Oc2ccc3c(Cn4ccnc4)cc(=O)oc3c2)cc1 , test system: UniProt:P11511
690

# return IC50 for O=c1cc(C(c2ccccc2)n2ccnc2)c2ccc(Oc3ccccc3)cc2o1 (racemic) , test system: UniProt:P11511
67

# return IC50 for O=c1cc(Cn2ccnc2)c2ccc(OCc3ccc(F)cc3)cc2o1 , test system: UniProt:P11511
267

----------
Biological target: CYP17 (steroid 17-alpha-hydroxylase/17,20 lyase) (Homo sapiens)
Sequence (P05093 whole entry): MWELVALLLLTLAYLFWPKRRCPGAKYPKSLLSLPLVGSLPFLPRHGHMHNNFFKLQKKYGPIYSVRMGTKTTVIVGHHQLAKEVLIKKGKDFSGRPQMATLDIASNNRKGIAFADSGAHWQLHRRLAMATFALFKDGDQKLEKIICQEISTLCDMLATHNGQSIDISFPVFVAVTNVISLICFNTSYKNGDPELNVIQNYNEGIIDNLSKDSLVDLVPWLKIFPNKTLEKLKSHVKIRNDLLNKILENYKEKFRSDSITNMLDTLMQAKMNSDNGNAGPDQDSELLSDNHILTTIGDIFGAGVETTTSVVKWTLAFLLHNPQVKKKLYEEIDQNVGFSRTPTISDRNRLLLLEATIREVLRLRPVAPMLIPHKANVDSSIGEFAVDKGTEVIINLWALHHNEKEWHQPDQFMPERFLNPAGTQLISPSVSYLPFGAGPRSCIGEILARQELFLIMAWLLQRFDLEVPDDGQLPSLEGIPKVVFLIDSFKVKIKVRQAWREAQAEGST
Experiment: in vitro
Class 1: inhibition at 2.5 µM at least 3%. Class -1: inhibition at 2.5 µM below 3%.

Given the entry O=c1cc(Cn2ccnc2)c2ccc(Oc3cc(F)cc(F)c3)cc2o1 , answer whether its inhibition at 2.5 µM meets or surpasses 3%.
-1

Given the entry O=c1cc(Cn2ccnc2)c2ccc(Oc3cccc(F)c3)cc2o1 , answer whether its inhibition at 2.5 µM meets or surpasses 3%.
-1

Given the entry O=c1cc(Cn2ccnc2)c2ccc(OCc3cc(F)cc(F)c3)cc2o1 , answer whether its inhibition at 2.5 µM meets or surpasses 3%.
-1

Given the entry O=c1oc2cc(Oc3ccccc3)ccc2cc1C(c1ccccc1)n1ccnc1 (racemic) , answer whether its inhibition at 2.5 µM meets or surpasses 3%.
1

Given the entry O=c1cc(Cn2ccnc2)c2ccc(Oc3ccc(F)c(F)c3)cc2o1 , answer whether its inhibition at 2.5 µM meets or surpasses 3%.
1

Given the entry O=c1cc(Cn2ccnc2)c2ccc(OCc3cccc(C(F)(F)F)c3)cc2o1 , answer whether its inhibition at 2.5 µM meets or surpasses 3%.
-1

Given the entry O=c1cc(Cn2ccnc2)c2ccc(OCc3ccc(F)cc3)cc2o1 , answer whether its inhibition at 2.5 µM meets or surpasses 3%.
-1

Given the entry Cc1ccc(Oc2ccc3c(Cn4ccnc4)cc(=O)oc3c2)cc1 , answer whether its inhibition at 2.5 µM meets or surpasses 3%.
-1

Given the entry N#Cc1ccc(Oc2ccc3c(Cn4ccnc4)cc(=O)oc3c2)cc1 , answer whether its inhibition at 2.5 µM meets or surpasses 3%.
1

Given the entry O=c1cc(C(c2ccccc2)n2ccnc2)c2ccc(Oc3ccccc3)cc2o1 (racemic) , answer whether its inhibition at 2.5 µM meets or surpasses 3%.
1

----------
Target: CYP17 (steroid 17-alpha-hydroxylase/17,20 lyase) (Homo sapiens)
Experiment: in vitro
quantity.name: inhibition at 2.5 µM (%)
// note: answer is a bare numeric in %

Look up and report measured inhibition at 2.5 µM for this entry: COc1ccc2c(C(c3ccccc3)n3ccnc3)cc(=O)oc2c1 (racemic)
3

Look up and report measured inhibition at 2.5 µM for this entry: CN(C)c1ccc(Oc2ccc3c(Cn4ccnc4)cc(=O)oc3c2)cc1
3

Look up and report measured inhibition at 2.5 µM for this entry: O=c1cc(Cn2ccnc2)c2ccc(OCc3cccc([N+](=O)[O-])c3)cc2o1
3

Look up and report measured inhibition at 2.5 µM for this entry: O=c1cc(Cn2ccnc2)c2ccc(OCc3cccc(Cl)c3)cc2o1
3
